Entry source: patent US11014911B2

Provide the reported pKi of each item.
subject.of.test: GSK3β (H350L) (Homo sapiens (Human), UniProt P49841)
Sequence (P49841 whole entry, stated change not applied): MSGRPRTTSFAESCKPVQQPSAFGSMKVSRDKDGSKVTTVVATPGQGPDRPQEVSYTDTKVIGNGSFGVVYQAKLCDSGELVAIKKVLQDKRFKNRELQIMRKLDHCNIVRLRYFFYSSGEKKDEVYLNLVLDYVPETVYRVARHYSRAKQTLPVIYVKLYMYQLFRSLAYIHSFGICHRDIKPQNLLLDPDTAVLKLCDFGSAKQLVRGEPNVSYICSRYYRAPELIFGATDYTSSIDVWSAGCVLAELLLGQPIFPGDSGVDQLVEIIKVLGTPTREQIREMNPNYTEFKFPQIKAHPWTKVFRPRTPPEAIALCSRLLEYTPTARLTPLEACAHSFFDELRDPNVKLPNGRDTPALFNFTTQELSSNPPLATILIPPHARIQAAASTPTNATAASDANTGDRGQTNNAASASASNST
condition.description: read-out: GSK3β Ki
# pKi is unitless: minus log10 of the molar concentration; print number only

Item: COc1cc(CC(=O)Nc2cc([C@@H]3CC[C@H](OC(=O)N4C[C@@](C)(O)[C@@H]4C)C3)[nH]n2)ccn1 [Example 624] | pKi: 7.79

Item: Cc1cc(CC(=O)Nc2cc([C@@H]3CC[C@H](OC(=O)N[C@H]4CC[C@H](O)CC4)C3)[nH]n2)ccn1 [Example 547] | pKi: 8.44

Item: COc1cc(CC(=O)Nc2cc([C@H]3CC[C@@H](OC(=O)N4C[C@@](C)(O)[C@@H]4C)C3)[nH]n2)ccn1 [Example 625] | pKi: 8.30

---

subject.of.test: CDK2/Cyclin E1 full length (Homo sapiens (Human))
experiment.summary: CDK2/Cyclin E1 full length mobility shift assay
attribute.measured: Ki (nM)
// note: answer is a bare numeric in nM

Item: CCC(CO)CNC(=O)O[C@@H]1CC[C@H](c2cc(NC(=O)Cc3ccc(OC)nc3)n[nH]2)C1 (single isomer, unassigned) [Example 533] | Ki: 0.77

Item: `O=C(Cc1cc(F)cc(F)c1)Nc1cc([C@@H]2CC[C@H](OC(=O)NC[C@H]3C[C@@H](O)C3)C2)[nH]n1` | Ki: 2.28

Item: `COc1cc(CC(=O)Nc2cc([C@H]3CC[C@@H](OC(=O)N4C[C@H](O)[C@H]4C)C3)[nH]n2)ccn1` | Ki: 2.98

---

subject.of.test: GSK3β (H350L) (Homo sapiens (Human), UniProt P49841)
experiment.summary: biochemical
condition.description: GSK3β Ki (nM)
Decide using Ki alone. Strictly below 20 nM: true (1). Equal to or above 20 nM: false (0).

Check if Ki falls below 20 nM for CC(CC(F)(F)F)NC(=O)O[C@@H]1CC[C@H](c2cc(NC(=O)c3ccnn3CCN(C)C)[nH]n2)C1 (single isomer, unassigned) [Example 410] .
false (0)

Check if Ki falls below 20 nM for COCc1cc(C(=O)Nc2cc([C@H]3CC[C@@H](OC(=O)NC4(C)CC4)C3)[nH]n2)n(C)n1 [Example 8] .
false (0)

Check if Ki falls below 20 nM for CC(CC(F)(F)F)NC(=O)O[C@@H]1CC[C@H](c2cc(NC(=O)Cc3cnco3)n[nH]2)C1 (single isomer, unassigned) [Example 83] .
false (0)

Check if Ki falls below 20 nM for COCc1cc(C(=O)Nc2cc([C@H]3CC[C@@H](OC(=O)NC(C)CC(F)(F)F)C3)[nH]n2)n(C)n1 (single isomer, unassigned) [Example 9] .
false (0)

Check if Ki falls below 20 nM for COc1cc(CC(=O)Nc2cc([C@H]3CC[C@@H](OC(=O)N[C@@H](C)[C@H](C)F)C3)[nH]n2)ccn1 (single isomer, unassigned) [Example 385] .
false (0)

Check if Ki falls below 20 nM for C[C@H]1[C@H](C#N)CN1C(=O)O[C@@H]1CC[C@H](c2cc(NC(=O)Cc3ccccc3)n[nH]2)C1 (single isomer, unassigned) [Example 161] .
true (1)

Check if Ki falls below 20 nM for CCC(CO)CNC(=O)O[C@@H]1CC[C@H](c2cc(NC(=O)Cc3ccnc(OC)c3)n[nH]2)C1 (single isomer, unassigned) [Example 534] .
true (1)

Check if Ki falls below 20 nM for Cc1cc(CC(=O)Nc2cc([C@H]3CC[C@@H](OC(=O)NC(C)CC(F)(F)F)C3)[nH]n2)on1 (single isomer, unassigned) [Example 71] .
false (0)

Check if Ki falls below 20 nM for CCC1(C)CCN1C(=O)O[C@@H]1CC[C@H](c2cc(NC(=O)Cc3cc(C)no3)n[nH]2)C1 (single isomer, unassigned) [Example 603] .
true (1)

Check if Ki falls below 20 nM for CCC(NC(=O)O[C@@H]1CC[C@H](c2cc(NC(=O)Cc3cnc(C)s3)n[nH]2)C1)C(F)(F)F (single isomer, unassigned) [Example 404] .
false (0)

Check if Ki falls below 20 nM for Cc1ncc(CC(=O)Nc2cc([C@H]3CC[C@@H](OC(=O)NC(C)CC(F)(F)F)C3)[nH]n2)s1 (single isomer, unassigned) [Example 79] .
true (1)

Check if Ki falls below 20 nM for Cc1cnc(CC(=O)Nc2cc([C@H]3CC[C@@H](OC(=O)NC(C)CC(F)(F)F)C3)[nH]n2)o1 (single isomer, unassigned) [Example 82] .
true (1)

Check if Ki falls below 20 nM for COc1ccc(CC(=O)Nc2cc([C@H]3CC[C@@H](OC(=O)N4CCC4C)C3)[nH]n2)cn1 (single isomer, unassigned) [Example 151] .
true (1)
